# system: T1, EsCas13d, nuclease-dead (Eubacterium siraeum, UniProt B0MS50, R295A;H300A;R849A;H854A)
# T1 sequence: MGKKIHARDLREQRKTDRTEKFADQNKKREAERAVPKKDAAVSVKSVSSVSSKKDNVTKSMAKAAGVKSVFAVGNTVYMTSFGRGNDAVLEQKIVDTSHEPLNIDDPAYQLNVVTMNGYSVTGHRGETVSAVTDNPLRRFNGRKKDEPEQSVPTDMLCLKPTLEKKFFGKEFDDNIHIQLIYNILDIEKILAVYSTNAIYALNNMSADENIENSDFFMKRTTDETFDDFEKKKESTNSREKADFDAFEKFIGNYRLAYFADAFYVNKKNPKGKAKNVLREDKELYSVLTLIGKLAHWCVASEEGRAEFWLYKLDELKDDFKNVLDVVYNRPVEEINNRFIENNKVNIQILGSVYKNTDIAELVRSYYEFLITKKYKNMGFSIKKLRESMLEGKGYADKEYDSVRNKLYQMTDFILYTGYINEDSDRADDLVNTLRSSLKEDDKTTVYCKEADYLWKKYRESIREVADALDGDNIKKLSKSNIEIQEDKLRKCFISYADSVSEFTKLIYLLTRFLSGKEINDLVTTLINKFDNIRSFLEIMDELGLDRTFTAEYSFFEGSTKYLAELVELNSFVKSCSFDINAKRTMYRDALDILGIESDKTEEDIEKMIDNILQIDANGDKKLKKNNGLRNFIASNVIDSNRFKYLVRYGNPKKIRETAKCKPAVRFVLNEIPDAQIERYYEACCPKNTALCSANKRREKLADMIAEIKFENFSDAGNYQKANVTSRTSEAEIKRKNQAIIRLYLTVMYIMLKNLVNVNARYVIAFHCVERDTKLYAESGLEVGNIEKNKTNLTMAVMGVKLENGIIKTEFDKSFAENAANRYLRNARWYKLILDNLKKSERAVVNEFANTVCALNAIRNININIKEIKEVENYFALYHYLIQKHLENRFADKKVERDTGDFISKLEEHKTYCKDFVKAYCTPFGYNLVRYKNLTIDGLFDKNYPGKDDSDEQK
# test-method-notes: crRNA (strand 1, pre-loaded); Mg2+; 40 mM Tris-HCl pH 7.5, 150 mM NaCl, 6 mM MgCl2, 1 mM DTT, 0.1% Tween-20, 0.2 mg/ml BSA; 25 C; 10 min per concentration, then washed
# setup-conditions: tags: His6-TwinStrep-SUMO cleaved; N-terminal SNAP kept (SNAP-Surface 488); label: 3' end held by stalled T7 RNA polymerase
Listing of recorded pKd by entry.
# pKd is unitless: minus log10 of the molar concentration; print number only

INSERT INTO measurements (binder, measurement) VALUES
  ('target 1 MT 5''PFS UGG 3''PFS CAU (mixed) RNA 1: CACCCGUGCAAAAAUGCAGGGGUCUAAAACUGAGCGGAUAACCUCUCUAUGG RNA 2: GGGAAUGGAUCCACAUCUACGAAUUCUGGCCAUAGAGAGGUUAUCCGCUCACAUAGAUCGGAAGAGCACACGU', 7.10);

Read the next record carefully.
Per the record, target 2 MT 5'PFS GUA 3'PFS AGC (mixed) RNA 1: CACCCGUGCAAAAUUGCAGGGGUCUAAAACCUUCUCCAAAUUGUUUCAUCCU RNA 2: GGGAAUGGAUCCACAUCUACGAAUUCGUAAGGAUGAAACAAUUUGGAGAAGAGCAGAUCGGAAGAGCACACGU has pKd of 8.19
